# Test system: Aspergillus tubingensis
# Protocol: Antifungal activity against Aspergillus tubingensis isolate CM-4000 after 48 hrs by EUCAST broth dilution method
# Type: functional
# Condition summary: isolate CM-4000, 48 h
Hi there, I'd appreciate the recorded MIC for every entry that follows.
Answers are plain numbers, in µg/mL.

Give MIC for each listed item.
1. CC[C@@H]([C@H](C)O)n1ncn(-c2ccc(N3CCN(c4ccc(OC[C@@H]5CO[C@@](Cn6cncn6)(c6ccc(F)cc6F)C5)cc4)CC3)cc2)c1=O
2. CCC(C)n1ncn(-c2ccc(N3CCN(c4ccc(OCC5COC(Cn6cncn6)(c6ccc(Cl)cc6Cl)O5)cc4)CC3)cc2)c1=O (stereo unspecified)
3. C[C@@H](c1ncncc1F)[C@](O)(Cn1cncn1)c1ccc(F)cc1F
4. C[C@@H]1[C@H](O)[C@@H](C)/C=C/C=C/C=C/C=C/C=C/C=C/C=C/[C@H](O[C@@H]2O[C@H](C)[C@@H](O)[C@H](N)[C@@H]2O)C[C@@H]2O[C@](O)(C[C@@H](O)C[C@@H](O)[C@H](O)CC[C@@H](O)C[C@@H](O)CC(=O)O[C@H]1C)C[C@H](O)[C@H]2C(=O)O

[0.25, 1, 2, 0.16]

Give one value of MIC per listed compound.
1. C[C@@H](c1nc(-c2ccc(C#N)cc2)cs1)[C@](O)(Cn1cncn1)c1ccc(F)cc1F
2. CN(C/C=C/C#CC(C)(C)C)Cc1cccc2ccccc12

[2, 0.33]

* * *

# Tested on: Aspergillus foetidus
# Protocol: Antifungal activity against Aspergillus foetidus isolate CM-4995 obtained from prosthesis after 48 hrs by EUCAST broth dilution method
# Assay type: functional
# Condition summary: isolate CM-4995, 48 h
Would you kindly list MIC for each of these compounds?
Give bare numbers, in µg/mL.

Examples with their reported MIC follow.
INSERT INTO assay_data (compound, data_value) VALUES
  ('CC[C@@H]([C@H](C)O)n1ncn(-c2ccc(N3CCN(c4ccc(OC[C@@H]5CO[C@@](Cn6cncn6)(c6ccc(F)cc6F)C5)cc4)CC3)cc2)c1=O [POSACONAZOLE]', 0.16),
  ('C[C@@H]1[C@H](O)[C@@H](C)/C=C/C=C/C=C/C=C/C=C/C=C/C=C/[C@H](O[C@@H]2O[C@H](C)[C@@H](O)[C@H](N)[C@@H]2O)C[C@@H]2O[C@](O)(C[C@@H](O)C[C@@H](O)[C@H](O)CC[C@@H](O)C[C@@H](O)CC(=O)O[C@H]1C)C[C@H](O)[C@H]2C(=O)O [AMPHOTERICIN B]', 0.21);

Proceeding to the next compound to report its MIC.
Return MIC for the following compound: CN(C/C=C/C#CC(C)(C)C)Cc1cccc2ccccc12 [TERBINAFINE]
0.33

* * *

# Test system: Aspergillus niger
# Protocol: Antifungal activity against Aspergillus niger isolate CM-3641 obtained from respiratory tract infection of patient after 48 hrs by EUCAST broth dilution method
# Format: functional
# Condition summary: isolate CM-3641, 48 h
Parameter: MIC (µg/mL)
Give bare numbers, in µg/mL.

Example entries begin here.
INSERT INTO results (molecule, parameter, data_value) VALUES
  ('C[C@@H]1[C@H](O)[C@@H](C)/C=C/C=C/C=C/C=C/C=C/C=C/C=C/[C@H](O[C@@H]2O[C@H](C)[C@@H](O)[C@H](N)[C@@H]2O)C[C@@H]2O[C@](O)(C[C@@H](O)C[C@@H](O)[C@H](O)CC[C@@H](O)C[C@@H](O)CC(=O)O[C@H]1C)C[C@H](O)[C@H]2C(=O)O [AMPHOTERICIN B]', 'MIC', 0.25),
  ('C[C@@H](c1nc(-c2ccc(C#N)cc2)cs1)[C@](O)(Cn1cncn1)c1ccc(F)cc1F [RAVUCONAZOLE]', 'MIC', 1),
  ('CCC(C)n1ncn(-c2ccc(N3CCN(c4ccc(OCC5COC(Cn6cncn6)(c6ccc(Cl)cc6Cl)O5)cc4)CC3)cc2)c1=O (stereo unspecified) [ITRACONAZOLE]', 'MIC', 0.5);

Your task in this section: give MIC for each listed record.
1. C[C@@H](c1ncncc1F)[C@](O)(Cn1cncn1)c1ccc(F)cc1F [VORICONAZOLE]
2. CC[C@@H]([C@H](C)O)n1ncn(-c2ccc(N3CCN(c4ccc(OC[C@@H]5CO[C@@](Cn6cncn6)(c6ccc(F)cc6F)C5)cc4)CC3)cc2)c1=O [POSACONAZOLE]
3. CN(C/C=C/C#CC(C)(C)C)Cc1cccc2ccccc12 [TERBINAFINE]

1: 1; 2: 0.125; 3: 0.25
